Reference source: patent US20240270821A1

Reported Relative cAMP EC50 values for the following binders.
- experimental system: human glucagon receptor (human) (UniProt P47871)
- Sequence (P47871 26-477): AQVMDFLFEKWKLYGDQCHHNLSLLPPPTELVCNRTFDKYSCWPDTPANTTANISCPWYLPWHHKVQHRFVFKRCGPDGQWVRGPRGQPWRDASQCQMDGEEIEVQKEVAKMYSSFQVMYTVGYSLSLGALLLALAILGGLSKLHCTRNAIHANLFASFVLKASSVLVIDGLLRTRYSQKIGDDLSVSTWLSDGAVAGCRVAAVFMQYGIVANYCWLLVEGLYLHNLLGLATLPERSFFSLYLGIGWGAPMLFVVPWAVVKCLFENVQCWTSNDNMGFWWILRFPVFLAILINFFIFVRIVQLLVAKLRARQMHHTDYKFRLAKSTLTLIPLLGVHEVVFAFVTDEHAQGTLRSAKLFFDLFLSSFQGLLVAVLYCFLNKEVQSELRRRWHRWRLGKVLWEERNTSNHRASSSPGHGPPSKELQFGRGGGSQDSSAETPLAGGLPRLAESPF
- run description: cell-based or functional assay

| binder | Relative cAMP EC50 |
| --- | --- |
| YXQGTFTSDFSXXLDKKAQXAFIEYLLEAGPSSGEPPPSGE (synthetic construct; SITE 2: note = 2-Aminoisobutyric Acid; SITE 12: note = L-ornithine; SITE 13: note = alpha-methyl-leucine; SITE 17: note = Lysine is chemically modified through conjugation of the epsilon-amino group of the Lysine side chain with (2-[2-(2-Amino-ethoxy)-ethoxy]-acetyl)-(gamma-Glu)) [Example 135] | 2.53 nM |
| YXQGTFTSDXSKXLDKKAQXAFIEYLLAGGPSSGEPPPSGE (Aib, 4Pal, αMeL; acylated Lys; C-term amide; synthetic construct; SITE 2: note = 2-Aminoisobutyric Acid; SITE 10: note = 3-(4-Pyridyl)-L-alanine; SITE 13: note = alpha-methyl-leucine; SITE 17: note = Lysine is chemically modified through conjugation of the epsilon-amino group of the Lysine side chain with (2-[2-(2-Amino-ethoxy)-ethoxy]-acetyl)) [Example 28] | 12.6 nM |
| YXQGTXTSDXSILLDKKAQXAFIEYLEEGGPSSGEPPPSGTEE (non-natural residues, acylated Lys ((γGlu)2-C18 diacid), C-terminal amide; synthetic construct; SITE 2: note = 2-Aminoisobutyric Acid; SITE 6: note = alpha-methyl-2-fluoro-L-phenylalanine; SITE 10: note = 3-(4-Pyridyl)-L-alanine; SITE 17: note = Lysine is chemically modified through conjugation of the epsilon-amino group of the Lysine side chain with (gamma-Glu)2-CO-(CH2)1) [Example 608] | 7.82 nM |
| YXQGTXTSDYSILLDKKAQXAFIEYLEEGGPSSGAPPPE (not fully specified; synthetic construct; SITE 2: note = 2-Aminoisobutyric Acid; SITE 6: note = alpha-methyl-2-fluoro-L-phenylalanine; SITE 17: note = Lysine is chemically modified through conjugation of the epsilon-amino group of the Lysine side chain with (2-[2-(2-Amino-ethoxy)-ethoxy]-acetyl)-(gamma-Glu)-CO-(CH2) 16-) [Example 388] | 2.15 nM |
| YXQGTXTSDXXIXLDXKAQXXFIEXLLEGGPSSXEPPPE (synthetic construct; SITE 2: note = 2-Aminoisobutyric Acid; SITE 6: note = alpha-methyl-2-fluoro-L-phenylalanine; SITE 10: note = 3-(4-Pyridyl)-L-alanine; SITE 11: note = alpha-methyl-L-serine; SITE 13: note = alpha-methyl-leucine; SITE 16: note = L-ornithine; SITE 17: note = Lysine is chemically mo) [Example 380] | 1.17 nM |
| YXQGTXTSDXXIXLDXKAQXXFIEXLIEGGPSSGEPPPSEG (synthetic construct; SITE 2: note = 2-Aminoisobutyric Acid; SITE 6: note = alpha-methyl-2-fluoro-L-phenylalanine; SITE 10: note = 3-(4-Pyridyl)-L-alanine; SITE 11: note = alpha-methyl-L-serine; SITE 13: note = alpha-methyl-leucine; SITE 16: note = L-ornithine; SITE 17: note = Lysine is chemically mo) [Example 401] | 1.99 nM |
